The following compounds are shown together with reported melting point values.

{"columns": ["Compound", "melting point"],
 "data": [
  ["CC(Oc1ccc(O)cc1)C(N)=O (stereo not drawn)", "138 to 140 °C"],
  ["N#Cc1cc(C2CC2)ccn1", "60 to 62 °C"],
  ["O=S(=O)(c1cccc(F)c1)N1CCNCC1", "97 to 99 °C"]
]}

The recorded melting point for entry Nc1ccccc1-c1nc(C2CC2)n[nH]1 equals 213 to 215 °C

The recorded melting point for entry Cn1nnnc1-c1cccc(S(N)(=O)=O)c1 equals 168 to 170 °C

The recorded melting point for entry Cc1ccc(O)c(C(=O)NO)c1 equals 179 to 181 °C

The recorded melting point for entry COc1ccc(S(=O)(=O)N2CCCCCC2)cc1N equals 118 to 119 °C

The recorded melting point for entry O=C(NS(=O)(=O)c1cccs1)c1ccccc1 equals 92 to 94 °C

The recorded melting point for entry O=C(O)Cc1csc(Cc2ccccc2)n1 equals 128 to 130 °C

The recorded melting point for entry CCc1nn(C)c(Cl)c1C(=O)O equals 139 to 141 °C

The recorded melting point for entry CS(=O)(=O)c1cc(C(=O)O)c(Cl)cc1Cl equals 210 to 212 °C

The recorded melting point for entry O=C(Nc1ccccc1C(=O)O)c1cccc(Br)c1 equals 189 to 191 °C
